System: A/Louisiana/49/2017 (H3N2), PA-I38M
Format: cell-based, influenza A(H3N2) virus
assay_conditions: read-out: PA inhibitor EC50 ± SD
readout_name: EC50 (nM)
# unit: nM | format: bare number

Lookup: Sample `O=C1c2c(O)c(=O)ccn2N([C@@H]2c3ccccc3SCc3c2ccc(F)c3F)[C@@H]2COCCN12` — what was its EC50?
Found: 9.95
